- studyTarget: 4-aminobutyrate aminotransferase, mitochondrial (Sus scrofa, UniProt P80147)
- Sequence (P80147 whole entry): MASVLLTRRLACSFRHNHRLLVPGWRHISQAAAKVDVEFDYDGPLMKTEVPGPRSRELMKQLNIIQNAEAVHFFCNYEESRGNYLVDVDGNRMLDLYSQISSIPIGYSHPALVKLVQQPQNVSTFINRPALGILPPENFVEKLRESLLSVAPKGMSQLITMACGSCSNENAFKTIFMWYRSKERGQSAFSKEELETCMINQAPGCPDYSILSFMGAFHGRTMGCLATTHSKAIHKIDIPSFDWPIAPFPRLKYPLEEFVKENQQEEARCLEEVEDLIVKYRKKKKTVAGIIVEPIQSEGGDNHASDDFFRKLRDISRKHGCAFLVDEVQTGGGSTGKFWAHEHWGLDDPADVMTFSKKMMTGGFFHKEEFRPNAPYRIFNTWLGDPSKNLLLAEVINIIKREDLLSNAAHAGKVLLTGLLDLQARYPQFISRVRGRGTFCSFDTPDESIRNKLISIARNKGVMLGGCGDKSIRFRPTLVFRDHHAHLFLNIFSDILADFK
- protocolNotes: Inhibition of pig brain GABA-AT in presence of beta-mercaptoethanol
measurementName: Ki
Don't forget the unit after the number, please.

State Ki (4-aminobutyrate aminotransferase, mitochondrial (Sus scrofa, UniProt P80147)) of `N[C@H]1C[C@@H](C(=O)O)CC1=C(C(F)(F)F)C(F)(F)F` . 4.2 mM

More entries:
State Ki (4-aminobutyrate aminotransferase, mitochondrial (Sus scrofa, UniProt P80147)) of `N[C@H]1C[C@@H](C(=O)O)C/C1=C/C(F)(F)F` . 7.74 mM

State Ki (4-aminobutyrate aminotransferase, mitochondrial (Sus scrofa, UniProt P80147)) of `N[C@H]1C[C@@H](C(=O)O)C=C1C(F)(F)F` . 4.11 mM

State Ki (4-aminobutyrate aminotransferase, mitochondrial (Sus scrofa, UniProt P80147)) of `N[C@H]1C[C@@H](C(=O)O)CC1=CC(F)(F)F` . 39.2 mM

State Ki (4-aminobutyrate aminotransferase, mitochondrial (Sus scrofa, UniProt P80147)) of `N[C@H]1C[C@@H](C(=O)O)C=C1C(F)(F)C(F)(F)F` . 2.8 mM

State Ki (4-aminobutyrate aminotransferase, mitochondrial (Sus scrofa, UniProt P80147)) of `N[C@H]1C[C@@H](C(=O)O)C=C1F` . 1.3 mM

Every entry's value here was drawn from ChEMBL document CHEMBL1137304.
